The following compounds are shown together with reported GI50 values.
# Tested on: NCI-H226 lung
# protocol description: NCI tumour cell line growth inhibition, 48 h

{"compound": "C=C1CC[C@@H]2[C@](C)(COC(C)=O)[C@H](OC(C)=O)CC[C@@]2(C)[C@@H]1CC(Sc1ccccc1)C1=CCOC1=O (some centres undefined)", "GI50": "2.3 µM"}
{"compound": "OC[C@H]1C[C@](O)(c2ccc(Cl)cc2)[C@@H](c2ccc(Cl)cc2)O1", "GI50": "26.4 µM"}
{"compound": "CC(C)CCN1c2nc(Nc3cc(F)c(O)c(F)c3)ncc2N(C)C(=O)C1C (centres undefined)", "GI50": "17.4 µM"}
{"compound": "Cc1cc(I)cc(CN(C)CCCN2CCCCCCC2)c1O", "GI50": "16.3 µM"}
{"compound": "Cn1nc(N)c2cc([C@@H]3Nc4ccc5[nH]ncc5c4[C@H]4C5CCC(C5)[C@@H]34)ccc21 (some centres undefined)", "GI50": "1.14 µM"}
{"compound": "COc1cnc2c(c1)C(=O)c1c-2n(CCCNC(C)C)c(=O)c2cc(Cl)ccc12", "GI50": "1.58 µM"}
{"compound": "CCC[CH2][Sn]1([CH2]CCC)[O]N=C(c2ccccc2)C(c2ccccc2)[O]1 (centres undefined)", "GI50": "2.09 µM"}
{"compound": "O=C(Nc1nc2ccc(C(F)(F)F)cc2s1)c1cc(Cl)ccc1O", "GI50": "1.23 µM"}
{"compound": "CCC(C)n1ncn(-c2ccc(N3CCN(c4ccc(OCC5COC(Cn6cncn6)(c6ccc(Cl)cc6Cl)O5)cc4)CC3)cc2)c1=O (centres undefined)", "GI50": "28.1 µM"}

---

# Test system: HS 578T breast
# protocol description: NCI tumour cell line growth inhibition, 48 h
Decision: TGI >= 10 µM yields criterion met, all other cases yield criterion not met.

{"compound": "CCCCCCCCCCCCCC1=NC(C)(C)CN1C(C)C", "label class": "criterion not met"}
{"compound": "NC(=O)NC1C(c2ccccc2)=C1c1ccccc1", "label class": "criterion met"}
{"compound": "COc1cccc2c1OC(c1ccc(Cl)cc1)C([N+](=O)[O-])=C2 (configuration not stated)", "label class": "criterion met"}
{"compound": "O=C1C2CC=CCC2C(=O)N1n1c(Cc2ccc(Cl)cc2)n[nH]c1=O (configuration not stated)", "label class": "criterion met"}
{"compound": "CC1(c2cccs2)CC(c2cccs2)=C(C#N)C(=C(C#N)C#N)N1 (configuration not stated)", "label class": "criterion met"}
{"compound": "CC(C)(Cl)C(Br)CCC(C)(Cl)C(Br)CBr (configuration not stated)", "label class": "criterion met"}
{"compound": "CCc1cc2c(oc3cc4ccccc4cc32)c(=O)[nH]1", "label class": "criterion met"}
{"compound": "CCN(CC)CCC(=O)/C=C/c1ccccc1", "label class": "criterion met"}
{"compound": "CCCCS(=O)CCC(N)P(=O)(O)O (configuration not stated)", "label class": "criterion met"}
{"compound": "OCC1OC(c2cccc3cc(O)c(O)cc23)CC1O (configuration not stated)", "label class": "criterion met"}
{"compound": "[Cl][Hg][c]1cc(Br)cc(Br)c1", "label class": "criterion not met"}
{"compound": "COc1ccc(C(C)=O)cc1N1C(=O)C2C(C1=O)C1(c3ccccc3)C(=O)C2(c2ccccc2)C(c2ccc(C)cc2)=C1c1ccc(C)cc1 (configuration not stated)", "label class": "criterion met"}

---

# Tested on: OVCAR-5 ovarian
# protocol description: NCI tumour cell line growth inhibition, 48 h
observable: TGI

{"molecule": "Nc1ncnc2c1ccn2C/C=C\\CO", "target desc": "OVCAR-5 ovarian", "observable": "TGI", "endpoint result": "> 100 µM"}
{"molecule": "S=C1NC2(CCCCCC2)NN1c1ccccc1", "target desc": "OVCAR-5 ovarian", "observable": "TGI", "endpoint result": "> 100 µM"}
{"molecule": "Cc1cc2c(cc1Cl)SC(NS(=O)(=O)c1ccc(Cl)cc1)=NS2(=O)=O", "target desc": "OVCAR-5 ovarian", "observable": "TGI", "endpoint result": "> 100 µM"}
{"molecule": "COC(=O)c1cc2c3c(ccc2[nH]1)N(C(=O)c1cc2cc(OC)c(OC)c(OC)c2[nH]1)CC3CCl (stereo unspecified)", "target desc": "OVCAR-5 ovarian", "observable": "TGI", "endpoint result": "> 100 µM"}
{"molecule": "CC1(C)COC(c2cccnc2/C=N/O)=N1", "target desc": "OVCAR-5 ovarian", "observable": "TGI", "endpoint result": "> 100 µM"}
{"molecule": "O=C(/C=C/c1ccccc1O)c1ccccc1O", "target desc": "OVCAR-5 ovarian", "observable": "TGI", "endpoint result": "> 100 µM"}

---

# Tested on: NCI/ADR-RES ovarian
# protocol description: NCI tumour cell line growth inhibition, 48 h
Quick reference for TGI among some compounds
observable: TGI

{"compound": "CN1CCN(C(=O)CCNC(=O)Cc2ccc(C(=O)c3ccccc3)cc2)CC1", "observable": "TGI", "endpoint result": "> 100 µM"}
{"compound": "CCC(C)n1ncn(-c2ccc(N3CCN(c4ccc(OCC5COC(Cn6cncn6)(c6ccc(Cl)cc6Cl)O5)cc4)CC3)cc2)c1=O (centres undefined)", "observable": "TGI", "endpoint result": "> 100 µM"}
{"compound": "COc1cc(OC)c(-c2ccc(OCc3ccccc3)c3c(OC)cc(C)cc23)c2c1C(C)=N[C@H](C)C2", "observable": "TGI", "endpoint result": "3.92 µM"}
{"compound": "CN(C(=O)C1=CCC2(CC1)OCCO2)c1ccccc1OS(=O)(=O)C(F)(F)F", "observable": "TGI", "endpoint result": "> 100 µM"}
{"compound": "CC(C)=CCNc1ncnc2c1ncn2C1OC(CO)C(O)C1O (centres undefined)", "observable": "TGI", "endpoint result": "52.1 µM"}
{"compound": "COc1cc(C(=O)n2c3ccc(Br)cc3c3nc4ccccc4nc32)cc(OC)c1OC", "observable": "TGI", "endpoint result": "> 100 µM"}
{"compound": "CCOc1cc2c(OCc3ccccc3)cc3c4cc(OC)c(OC)cc4c[n+](C)c3c2cc1OC", "observable": "TGI", "endpoint result": "> 100 µM"}
{"compound": "C=C(CNCc1ccccc1)c1ccc(C(=O)Nc2ccccc2N)cc1", "observable": "TGI", "endpoint result": "18.8 µM"}
{"compound": "CCCCCCCCCC1(N=[N+]=[N-])C(=O)c2ccccc2N(C)C1=O (centres undefined)", "observable": "TGI", "endpoint result": "> 100 µM"}
{"compound": "COc1cc(/C=C2\\C[C@H]3[C@@H]4CCc5cc(O)ccc5[C@H]4CC[C@]3(C)C2=O)cc(OC)c1OC", "observable": "TGI", "endpoint result": "39.5 µM"}
{"compound": "O=C1NC(=O)C(c2c[nH]c3ccccc23)=C1c1cnc[nH]1", "observable": "TGI", "endpoint result": "> 100 µM"}
{"compound": "COc1cc2nc(-c3ccc(Cl)cc3)cc(OCCCN3CCCCC3)c2cc1OC", "observable": "TGI", "endpoint result": "> 100 µM"}
{"compound": "O=C(NCC(=O)N1CCCC1C(=O)OC(=O)C1CCCN1C(=O)CNC(=O)OCc1ccccc1)OCc1ccccc1 (centres undefined)", "observable": "TGI", "endpoint result": "> 100 µM"}
{"compound": "O=C(NC(Cc1c[nH]c2ccccc12)C(=O)Nc1ccc(Br)cc1)OCc1ccccc1 (centres undefined)", "observable": "TGI", "endpoint result": "54.3 µM"}
{"compound": "Oc1cn(-c2ccc(Cl)cc2)nc1-c1nnc(-c2ccccc2)o1", "observable": "TGI", "endpoint result": "7 µM"}
{"compound": "CNc1ccc(C(=O)CC(O)CCC(C)C2OC(=O)CC(O)CC(=O)CC(O)CC(O)CC(O)CC(O)CC3(O)CC(O)C(C(=O)NCCN(C)C)C(CC(OC4OC(C)C(O)C(NC(=O)CN5CCN(C)CC5)C4O)/C=C/C=C/C=C/C=C\\C=C/C=C/C=C/C2C)O3)cc1 (centres undefined)", "observable": "TGI", "endpoint result": "> 100 µM"}
{"compound": "C=C(c1nc2ccc(Cl)cc2[nH]c1=O)C(O)c1ccc(C(O)C(=O)c2nc3ccc(Cl)cc3[nH]c2=O)cc1 (centres undefined)", "observable": "TGI", "endpoint result": "> 100 µM"}
{"compound": "Nc1ncnc2c1ccn2C/C=C\\CO", "observable": "TGI", "endpoint result": "> 100 µM"}
{"compound": "CCCCCCNC(=O)c1cc(NCc2cc(O)ccc2O)ccc1O", "observable": "TGI", "endpoint result": "78.1 µM"}
{"compound": "CS(=O)(=O)Nc1ccc2c(c1)oc(=O)c1ccccc12", "observable": "TGI", "endpoint result": "> 100 µM"}
{"compound": "CC(C)c1ccc2c(c1)CC[C@@H]1[C@@](C)(C(=O)O)CCC[C@]21C", "observable": "TGI", "endpoint result": "57 µM"}
{"compound": "CCN(CC)CCOc1ccc(-c2nc3cc(Cl)ccc3s2)cc1", "observable": "TGI", "endpoint result": "3.87 µM"}
{"compound": "CCCCC1=NNC(=O)C1", "observable": "TGI", "endpoint result": "> 100 µM"}
{"compound": "CCOC(=O)c1c(-c2ccc(OC)cc2)c(C#N)c(=S)n(C2OC(COC(C)=O)C(OC(C)=O)C(OC(C)=O)C2OC(C)=O)c1-c1ccccc1 (centres undefined)", "observable": "TGI", "endpoint result": "> 100 µM"}
{"compound": "CCCC(=O)n1[nH]c(=O)n(-c2ccc(Cl)cc2)c1=O", "observable": "TGI", "endpoint result": "> 100 µM"}
{"compound": "CCCC[C@@H]1CCN2C[C@@H](O)[C@@H](O)[C@@H]2[C@H]1O", "observable": "TGI", "endpoint result": "> 100 µM"}
{"compound": "Nc1ccc(Oc2ccc(C34CC5CC6C3CC3CC4C(C5)C6(c4ccc(Oc5ccc(N)cc5)cc4)C3)cc2)cc1", "observable": "TGI", "endpoint result": "> 100 µM"}
{"compound": "C1C2CC3CC1CC(Nc1nc(NC45CC6CC(CC(C6)C4)C5)nc(NC45CC6CC(CC(C6)C4)C5)n1)(C2)C3", "observable": "TGI", "endpoint result": "> 100 µM"}
{"compound": "COC(=O)C1=C(C)NC2=C(C(=O)c3ccccc32)C1c1cn(-c2ccccc2)nc1-c1ccccc1 (centres undefined)", "observable": "TGI", "endpoint result": "> 100 µM"}
{"compound": "COc1ccccc1/C(=N\\OCCC(=O)O)c1cccs1", "observable": "TGI", "endpoint result": "> 100 µM"}
{"compound": "COC(=O)CC(C#N)(OP1(=O)OC(c2ccccc2)C(C)N1C)c1ccccc1 (centres undefined)", "observable": "TGI", "endpoint result": "> 100 µM"}
{"compound": "CC(=O)Nc1ccc(C(=O)NN2C(=O)CSC2c2ccc([N+](=O)[O-])cc2)cc1 (centres undefined)", "observable": "TGI", "endpoint result": "> 100 µM"}
{"compound": "CCOC(=O)C1=C(C)N(Cc2ccc(Cl)cc2Cl)C2(O)C=CC(=O)C3C(=O)N(c4ccccc4)C(=O)C132 (centres undefined)", "observable": "TGI", "endpoint result": "11.1 µM"}
{"compound": "N#Cc1c(-c2ccc(Cl)cc2)c2c([nH]c1=O)-c1ccccc1SC2", "observable": "TGI", "endpoint result": "> 100 µM"}
{"compound": "Cc1c([N+](=O)[O-])ccc2c(NCCCN(C)C)ccnc12", "observable": "TGI", "endpoint result": "> 100 µM"}
{"compound": "O=C(O)C1C2C=CC(O2)C1C(=O)NCc1ccccn1 (centres undefined)", "observable": "TGI", "endpoint result": "> 100 µM"}
{"compound": "COc1cccc2c1OC(c1ccc(Cl)cc1)C([N+](=O)[O-])=C2 (centres undefined)", "observable": "TGI", "endpoint result": "39.5 µM"}
{"compound": "O=c1cnn(C/C=C/CBr)c(=O)[nH]1", "observable": "TGI", "endpoint result": "58.1 µM"}
{"compound": "C=CCCCCC/C=C\\[C@H](O)C#CC#C/C=C/CO", "observable": "TGI", "endpoint result": "57.3 µM"}
